The measured values listed here are drawn from patent US20080051336A1.

- ASSAYED SYSTEM: T1, human LGR7 (human, UniProt Q9HBX9 1-757)
- T1 sequence (looked up): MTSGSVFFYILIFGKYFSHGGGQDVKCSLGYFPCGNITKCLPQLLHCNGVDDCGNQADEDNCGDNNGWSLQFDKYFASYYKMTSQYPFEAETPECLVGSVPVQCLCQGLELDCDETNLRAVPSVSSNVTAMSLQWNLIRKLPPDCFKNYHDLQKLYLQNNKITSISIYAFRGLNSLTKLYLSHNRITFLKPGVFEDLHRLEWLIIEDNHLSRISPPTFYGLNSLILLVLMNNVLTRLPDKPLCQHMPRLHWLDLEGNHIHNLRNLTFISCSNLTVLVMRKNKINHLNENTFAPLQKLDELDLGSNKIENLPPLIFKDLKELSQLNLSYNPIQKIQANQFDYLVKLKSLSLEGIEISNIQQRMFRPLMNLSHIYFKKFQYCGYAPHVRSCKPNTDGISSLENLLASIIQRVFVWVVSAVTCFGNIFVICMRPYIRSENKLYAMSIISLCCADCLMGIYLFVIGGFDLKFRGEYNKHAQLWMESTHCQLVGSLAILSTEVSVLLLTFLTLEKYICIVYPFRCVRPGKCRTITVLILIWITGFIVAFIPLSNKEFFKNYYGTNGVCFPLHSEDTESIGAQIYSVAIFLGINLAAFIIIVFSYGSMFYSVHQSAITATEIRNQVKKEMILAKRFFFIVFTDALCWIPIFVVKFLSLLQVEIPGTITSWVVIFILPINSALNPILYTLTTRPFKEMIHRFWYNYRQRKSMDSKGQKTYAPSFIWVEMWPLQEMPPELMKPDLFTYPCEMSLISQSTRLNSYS
- PROTOCOL DETAILS: cell-based or functional assay
Ends that are not written are not given here.
VALUE TYPE: EC50, ligand stimulated β-galactosidase expression (nM)

BINDER	UNIT SYMBOL	MEASURED RESULT
human relaxin-3/relaxin-2 chimeric polypeptide (R3/R2), mature (ligand, disulfide (positions not given here); also: two-chain peptide (relaxin-3 B chain, relaxin-2 A chain), disulfide-linked, places not given here, Mature two-chain peptide: human relaxin-3 B-chain disulfide-linked to human relaxin-2 A-chain; FLAG tag removed) RAAPYGVRLCGREFIRAVIFTCGGSRWQLYSALANKCCHVGCTKRSLARFC	nM	1.1
RAAPYGVRLCGREFIRAVIFTCGGSRWPYVALFEKCCLIGCTKRSLAKYC (ligand, disulfide (positions not given here); also: two chains (relaxin-3 B-chain, relaxin-1 A-chain), disulfide-linked, chain break not marked, Mature two-chain peptide: human relaxin-3 B-chain disulfide-linked to human relaxin-1 A-chain; Made in COS-7 cells with furin; the FLAG tag was removed with enterokinase) [human relaxin-3/relaxin-1 chimeric polypeptide (R3/R1), mature]	nM	4.5
RAAPYGVRLCGREFIRAVIFTCGGSRWQDLQTLCCTDGCSMTDLSALC (ligand, disulfide (positions not given here); also: two chains (relaxin-3 B-chain, INSL5 A-chain), disulfide-linked, chain break not marked, Mature two-chain peptide: human relaxin-3 B-chain disulfide-linked to human INSL5 A-chain; FLAG tag removed; the tracer is kept under this same molecule; also called R3/5; I5/R3) [human relaxin-3/INSL5 chimeric polypeptide (R3/I5), mature]	nM	412
RAAPYGVRLCGREFIRAVIFTCGGSRWGYSEKCCLTGCTKEELSIAC (ligand, disulfide (positions not given here); also: two chains (relaxin-3 B-chain, INSL6 A-chain), disulfide-linked, chain break not marked, Mature two-chain peptide: human relaxin-3 B-chain disulfide-linked to human INSL6 A-chain; FLAG tag removed) [human relaxin-3/INSL6 chimeric polypeptide (R3/I6), mature]	nM	13.7
RAAPYGVRLCGREFIRAVIFTCGGSRWNPARYCCLSGCTQQDLLTLC (ligand, disulfide (positions not given here); also: two chains (relaxin-3 B-chain, INSL3 A-chain), disulfide-linked, chain break not marked, Mature two-chain peptide: human relaxin-3 B-chain disulfide-linked to human INSL3 A-chain; FLAG tag removed) [human relaxin-3/INSL3 chimeric polypeptide (R3/I3), mature]	nM	2.5
